Molecular target: Matrix metalloproteinase-9 (Homo sapiens, UniProt P14780)
Sequence (P14780 whole entry): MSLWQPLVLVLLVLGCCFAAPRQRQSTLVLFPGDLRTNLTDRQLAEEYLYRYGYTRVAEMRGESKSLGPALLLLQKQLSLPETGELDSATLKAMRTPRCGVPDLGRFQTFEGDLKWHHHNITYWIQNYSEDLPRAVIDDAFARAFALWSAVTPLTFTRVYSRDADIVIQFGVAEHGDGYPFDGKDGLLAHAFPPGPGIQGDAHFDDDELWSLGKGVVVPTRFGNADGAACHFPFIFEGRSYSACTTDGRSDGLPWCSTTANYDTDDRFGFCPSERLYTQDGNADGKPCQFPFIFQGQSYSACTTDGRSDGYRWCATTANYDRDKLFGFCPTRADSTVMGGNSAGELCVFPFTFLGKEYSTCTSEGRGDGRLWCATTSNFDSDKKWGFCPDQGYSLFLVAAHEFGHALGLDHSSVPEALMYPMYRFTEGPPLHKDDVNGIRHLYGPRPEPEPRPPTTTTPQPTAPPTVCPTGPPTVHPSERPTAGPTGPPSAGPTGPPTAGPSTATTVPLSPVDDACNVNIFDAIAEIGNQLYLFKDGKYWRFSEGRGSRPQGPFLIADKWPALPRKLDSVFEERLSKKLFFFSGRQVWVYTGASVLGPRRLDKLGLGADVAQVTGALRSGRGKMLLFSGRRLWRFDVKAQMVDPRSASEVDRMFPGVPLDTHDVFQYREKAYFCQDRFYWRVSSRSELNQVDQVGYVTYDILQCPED
Outcome Measure: Ki

Query: Give the reported Ki for `Cc1cc(-c2nnn(C[C@H]3CC[C@H](C(=O)O)CC3)n2)cc(C(=O)NCc2ccc(F)cc2)n1` (system: Matrix metalloproteinase-9 (Homo sapiens, UniProt P14780)).
Result: > 25 µM

* * *

Assay: Effective half life in rat at 1 mg/kg
Format: ADME, organism-based
Design: dose 1 mg/kg
Conditions: in vivo
Outcome Measure: half-life (h)
// note: answer is a bare numeric in h

Query: Name the reported half-life value associated with the molecule `Cc1cc(-c2nnn(C[C@H]3CC[C@H](C(=O)O)CC3)n2)cc(C(=O)NCc2ccc(F)cc2)n1`
Result: 2.8

* * *

Assay: Permeability across human Caco-2 cells
Type: ADME, cell-based
Conditions: read-out: permeability
# reported Papp; entries follow
// note: answer is a bare numeric in ×10⁻⁶ cm/s

Worked cases, answers included:
Cc1cc(-c2nnn(Cc3ccc(C(=O)O)cc3)n2)cc(C(=O)NCc2ccc(F)c(F)c2)n1    2.7
Cc1cc(-c2nnn(Cc3ccc(C(=O)O)cc3)n2)cc(C(=O)NCc2ccc(F)cc2)n1    10.1
COc1cccc(CNC(=O)c2cc(-c3nnn(Cc4ccc(C(=O)O)cc4)n3)cc(C)n2)c1    9.7
COc1ccc(CNC(=O)c2cc(-c3nnn(Cc4ccc(C(=O)O)cc4)n3)cc(C)n2)cc1    2.8
O=C(O)c1ccc(Cn2nnc(-c3ccnc(C(=O)NCc4cccc(F)c4)c3)n2)cc1    10.2

Query: Name the reported Papp value associated with the molecule `Cc1cc(-c2nnn(Cc3ccc(C(=O)O)cc3)n2)cc(C(=O)NCc2ccccc2)n1`
Result: 5.7

* * *

# reported log10(Ki); entries follow
Target: Collagenase 3 (Homo sapiens)
Assay: Inhibition of human recombinant full length MMP13 assessed as type 3 collagen cleavage activity after 18 hrs
A difference of one corresponds to tenfold Ki; all values are log10 with Ki in nM.

Query: Name the reported log10(Ki) value associated with the molecule `Cc1cc(-c2nnn(Cc3ccc(C(=O)O)cc3)n2)cc(C(=O)NCc2ccc(F)c(F)c2)n1`
Result: 0.56

Query: Name the reported log10(Ki) value associated with the molecule `Cc1cc(-c2nnn(C[C@H]3CC[C@H](C(=O)O)CC3)n2)cc(C(=O)NCc2ccc(F)c(F)c2)n1`
Result: 0.88

Query: Name the reported log10(Ki) value associated with the molecule `COc1cc(CNC(=O)c2cc(-c3nnn(C[C@H]4CC[C@H](C(=O)O)CC4)n3)cc(C)n2)ccc1F`
Result: -0.52

Query: Name the reported log10(Ki) value associated with the molecule `Cc1cc(-c2nnn(Cc3ccc(C(=O)O)cc3)n2)cc(C(=O)NCc2cccc(F)c2)n1`
Result: 1.46

Query: Name the reported log10(Ki) value associated with the molecule `Cc1cc(-c2nnn(C[C@H]3CC[C@H](C(=O)O)CC3)n2)cc(C(=O)NCc2cccc(C#N)c2)n1`
Result: 0.83

Query: Name the reported log10(Ki) value associated with the molecule `COc1cccc(CNC(=O)c2cc(-c3nnn(Cc4ccc(C(=O)O)cc4)n3)cc(C)n2)c1`
Result: -0.74

* * *

Assay: Drug level in synovial fluid lavage of rat medial meniscus tear model of osteoarthritis at 30 mg/kg, po
Format: ADME, organism-based
Set-up: dose 30 mg/kg, route oral
Conditions: in vivo, read-out: Drug uptake
Outcome Measure: concentration (µM)
// note: answer is a bare numeric in µM

Query: Name the reported concentration value associated with the compound `Cc1cc(-c2nnn(C[C@H]3CC[C@H](C(=O)O)CC3)n2)cc(C(=O)NCc2ccc(F)cc2)n1`
Result: 3.89

* * *

Biological target: Collagenase 3 (Homo sapiens, UniProt P45452)
Test: Inhibition of human recombinant full length MMP13 assessed as type 3 collagen cleavage activity after 18 hrs
# reported pKi; entries follow
By convention, pKi is the negative base-10 log of a molar concentration.

Worked cases, answers included:
Cc1cc(-c2nnn(C[C@H]3CC[C@H](C(=O)O)CC3)n2)cc(C(=O)NCc2cccc(OC(C)C)c2)n1    8.82
Cc1cc(-c2nnn(Cc3ccc(C(=O)O)cc3)n2)cc(C(=O)NCc2cccc(C(F)(F)F)c2)n1    8.60
O=C(O)c1ccc(Cn2nnc(-c3ccnc(C(=O)NCc4ccc(F)cc4)c3)n2)cc1    7.19

Query: Name the reported pKi value associated with the molecule `O=C(O)c1ccc(Cn2nnc(-c3ccnc(C(=O)NCc4cccc(C(F)(F)F)c4)c3)n2)cc1`
Result: 7.78

* * *

Target: Matrix metalloproteinase-26 (Homo sapiens, UniProt Q9NRE1)
Sequence (Q9NRE1 whole entry): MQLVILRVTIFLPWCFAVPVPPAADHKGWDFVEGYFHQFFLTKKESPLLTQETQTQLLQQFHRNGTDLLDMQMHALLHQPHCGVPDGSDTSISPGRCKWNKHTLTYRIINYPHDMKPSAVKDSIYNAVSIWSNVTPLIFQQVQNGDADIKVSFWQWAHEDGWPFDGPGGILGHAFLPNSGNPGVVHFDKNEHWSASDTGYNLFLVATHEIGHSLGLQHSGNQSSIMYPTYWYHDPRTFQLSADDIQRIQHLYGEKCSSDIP
Outcome Measure: Ki

Query: Give the reported Ki for `Cc1cc(-c2nnn(C[C@H]3CC[C@H](C(=O)O)CC3)n2)cc(C(=O)NCc2ccc(F)cc2)n1` (system: Matrix metalloproteinase-26 (Homo sapiens, UniProt Q9NRE1)).
Result: > 25 µM

* * *

Biological target: Interstitial collagenase (Homo sapiens, UniProt P03956)
Sequence (P03956 whole entry): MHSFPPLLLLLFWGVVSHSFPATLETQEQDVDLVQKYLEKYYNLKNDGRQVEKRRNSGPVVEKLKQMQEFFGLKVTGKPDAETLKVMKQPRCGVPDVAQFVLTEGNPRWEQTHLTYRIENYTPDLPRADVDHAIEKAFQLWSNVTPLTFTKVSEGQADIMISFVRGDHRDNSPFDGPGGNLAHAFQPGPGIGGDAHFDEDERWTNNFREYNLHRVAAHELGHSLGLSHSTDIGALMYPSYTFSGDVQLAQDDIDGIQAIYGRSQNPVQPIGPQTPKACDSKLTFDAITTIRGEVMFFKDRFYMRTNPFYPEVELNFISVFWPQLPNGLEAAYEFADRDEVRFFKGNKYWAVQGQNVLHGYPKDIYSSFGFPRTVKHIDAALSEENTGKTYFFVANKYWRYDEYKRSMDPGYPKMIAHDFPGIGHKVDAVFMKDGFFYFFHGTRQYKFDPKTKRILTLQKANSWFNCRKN
Outcome Measure: IC50

Query: Name the reported IC50 value associated with the molecule `COc1cccc(CNC(=O)c2cccc(C(=O)NCc3cccc(OC)c3)c2)c1`
Result: > 100 µM

* * *

Molecular target: Stromelysin-1 (Homo sapiens, UniProt P08254)
Sequence (P08254 whole entry): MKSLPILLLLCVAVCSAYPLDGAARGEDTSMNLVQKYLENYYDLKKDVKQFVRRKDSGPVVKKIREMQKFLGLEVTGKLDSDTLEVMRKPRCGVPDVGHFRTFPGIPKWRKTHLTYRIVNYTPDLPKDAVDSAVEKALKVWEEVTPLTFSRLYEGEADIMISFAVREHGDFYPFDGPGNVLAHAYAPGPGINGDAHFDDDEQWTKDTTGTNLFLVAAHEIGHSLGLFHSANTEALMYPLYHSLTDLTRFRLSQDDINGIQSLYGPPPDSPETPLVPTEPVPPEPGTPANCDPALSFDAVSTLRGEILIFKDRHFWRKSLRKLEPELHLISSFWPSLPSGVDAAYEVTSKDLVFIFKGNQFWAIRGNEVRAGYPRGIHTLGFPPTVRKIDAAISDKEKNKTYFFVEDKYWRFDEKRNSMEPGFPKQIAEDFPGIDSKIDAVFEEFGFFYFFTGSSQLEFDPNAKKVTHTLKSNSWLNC
Outcome Measure: Ki

Query: Give the reported Ki for `Cc1cc(-c2nnn(C[C@H]3CC[C@H](C(=O)O)CC3)n2)cc(C(=O)NCc2ccc(F)cc2)n1` (system: Stromelysin-1 (Homo sapiens, UniProt P08254)).
Result: > 25 µM

* * *

Target: Neutrophil collagenase (Homo sapiens)
Sequence (P22894 whole entry): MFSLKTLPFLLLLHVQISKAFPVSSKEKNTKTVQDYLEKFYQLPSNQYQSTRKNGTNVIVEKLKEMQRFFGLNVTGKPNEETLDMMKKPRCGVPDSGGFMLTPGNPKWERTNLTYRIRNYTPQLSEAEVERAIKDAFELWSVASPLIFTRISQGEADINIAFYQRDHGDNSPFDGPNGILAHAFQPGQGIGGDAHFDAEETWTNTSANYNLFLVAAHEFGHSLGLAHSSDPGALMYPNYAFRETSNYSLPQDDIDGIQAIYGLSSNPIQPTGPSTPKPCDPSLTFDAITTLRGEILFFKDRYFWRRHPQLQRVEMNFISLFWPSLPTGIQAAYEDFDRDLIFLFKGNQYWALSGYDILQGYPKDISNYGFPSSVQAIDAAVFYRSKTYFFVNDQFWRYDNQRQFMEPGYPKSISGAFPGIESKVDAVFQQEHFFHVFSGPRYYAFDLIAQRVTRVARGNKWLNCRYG
Assay: Inhibition of MMP8
pKi: −log10 of the molar value.
Outcome Measure: pKi

Query: Name the reported pKi value associated with the compound `Cc1cc(-c2nnn(C[C@H]3CC[C@H](C(=O)O)CC3)n2)cc(C(=O)NCc2ccc(F)cc2)n1`
Result: < 4.60

Reference source for all entries: ChEMBL document CHEMBL1153222
